- SUBJECT OF TEST: Human immunodeficiency virus type 1 protease (Human immunodeficiency virus 1)
pKi: −log10 of the molar value.
Classification scheme (pKi): bucket 1 (below 8), bucket 2 (8 to below 9), bucket 3 (9 or more)

A selection of reference data follows.
{"COMPOUND": "O=c1c2c(oc(O)c1C(c1cccc(NS(=O)(=O)c3ccc(I)cc3)c1)C1CC1)CCCCCC2 (stereo not drawn)", "SUBJECT OF TEST": "Human immunodeficiency virus type 1 protease (Human immunodeficiency virus 1)", "CLASS ASSIGNMENT": "bucket 2"}
{"COMPOUND": "CC(C)C(c1cccc(NS(=O)(=O)c2ccc(Cl)cc2)c1)c1c(O)c2c(oc1=O)CCCCCC2 (stereo not drawn)", "SUBJECT OF TEST": "Human immunodeficiency virus type 1 protease (Human immunodeficiency virus 1)", "CLASS ASSIGNMENT": "bucket 1"}
{"COMPOUND": "CCCC(c1cccc(NS(=O)(=O)c2cn(C)cn2)c1)c1c(O)c2c(oc1=O)CCCCCC2 (stereo not drawn)", "SUBJECT OF TEST": "Human immunodeficiency virus type 1 protease (Human immunodeficiency virus 1)", "CLASS ASSIGNMENT": "bucket 3"}
{"COMPOUND": "CCc1ccc(S(=O)(=O)Nc2cccc(C(c3c(O)c4c(oc3=O)CCCCCC4)C3CC3)c2)cc1 (stereo not drawn)", "SUBJECT OF TEST": "Human immunodeficiency virus type 1 protease (Human immunodeficiency virus 1)", "CLASS ASSIGNMENT": "bucket 2"}
{"COMPOUND": "O=c1c2c(oc(O)c1C(c1cccc(NS(=O)(=O)c3ccc4ccccc4c3)c1)C1CC1)CCCCCC2 (stereo not drawn)", "SUBJECT OF TEST": "Human immunodeficiency virus type 1 protease (Human immunodeficiency virus 1)", "CLASS ASSIGNMENT": "bucket 2"}
{"COMPOUND": "CC(C)CC(c1cccc(NS(=O)(=O)c2cn(C)cn2)c1)c1c(O)c2c(oc1=O)CCCCCC2 (stereo not drawn)", "SUBJECT OF TEST": "Human immunodeficiency virus type 1 protease (Human immunodeficiency virus 1)", "CLASS ASSIGNMENT": "bucket 3"}
{"COMPOUND": "O=c1c2c(oc(O)c1C(c1cccc(S(=O)(=O)Nc3ccccc3)c1)C1CC1)CCCCCC2 (stereo not drawn)", "SUBJECT OF TEST": "Human immunodeficiency virus type 1 protease (Human immunodeficiency virus 1)", "CLASS ASSIGNMENT": "bucket 1"}
{"COMPOUND": "C=CS(=O)(=O)Nc1cccc(C(c2c(O)oc3c(c2=O)CCCCCC3)C2CC2)c1 (stereo not drawn)", "SUBJECT OF TEST": "Human immunodeficiency virus type 1 protease (Human immunodeficiency virus 1)", "CLASS ASSIGNMENT": "bucket 1"}
{"COMPOUND": "O=c1c2c(oc(O)c1C(c1cccc(NS(=O)(=O)c3ccc4ccccc4n3)c1)C1CC1)CCCCCC2 (stereo not drawn)", "SUBJECT OF TEST": "Human immunodeficiency virus type 1 protease (Human immunodeficiency virus 1)", "CLASS ASSIGNMENT": "bucket 3"}
{"COMPOUND": "CC(C)CC(c1cccc(NS(=O)(=O)c2cccc3cccnc23)c1)c1c(O)c2c(oc1=O)CCCCCC2 (stereo not drawn)", "SUBJECT OF TEST": "Human immunodeficiency virus type 1 protease (Human immunodeficiency virus 1)", "CLASS ASSIGNMENT": "bucket 2"}

Query: The entry to classify is Cc1cccc(C)c1S(=O)(=O)Nc1cccc(C(c2c(O)c3c(oc2=O)CCCCCC3)C2CC2)c1 (stereo not drawn) ; which class holds it?
Response: bucket 1

Query: The entry to classify is CS(=O)(=O)Nc1cccc(C(c2c(O)c3c(oc2=O)CCCCC3)C2CC2)c1 (stereo not drawn) ; which class holds it?
Response: bucket 1

Query: The entry to classify is O=c1c2c(oc(O)c1C(c1cccc(NS(=O)(=O)c3ccc(Br)cc3)c1)C1CC1)CCCCCC2 (stereo not drawn) ; which class holds it?
Response: bucket 2

Query: The entry to classify is O=c1c2c(oc(O)c1C(c1cccc(NS(=O)(=O)C3CCCCC3)c1)C1CC1)CCCCCC2 (stereo not drawn) ; which class holds it?
Response: bucket 2
